For each entry below, report its pIC50 value.
system: Phospho-Rb (Ser807/811); test: Phospho-Retinoblastoma (pRB) Cellular Assay; type: cell-based; conditions: Homo sapiens, OVCAR-3; NIH OVCAR3 cells, 24 hours; concentration giving 50% response
Scale for pIC50: -log10 of concentration given in mol/L; no unit attached.

Report pIC50 for O=C1CCC(N2Cc3ccc(COC(=O)Nc4ccc(Oc5ccccc5)cc4)c(Oc4cccnc4)c3C2=O)C(=O)N1 (centres unmarked) tested on Phospho-Rb (Ser807/811).
6.80

API: value(readout=pIC50, system=Phospho-Rb (Ser807/811)) for record COc1c(COC(=O)Nc2ccc(Oc3cc(F)c(F)c(F)c3)cc2F)ccc2c1C(=O)N(C1CCC(=O)NC1=O)C2 (centres unmarked)
6.90

# get_value(readout= pIC50, system= Phospho-Rb (Ser807/811)) for COc1c(COC(=O)Nc2ccc(Cc3cccc(F)c3)cc2F)ccc2c1C(=O)N(C1CCC(=O)NC1=O)C2 (centres unmarked)
6.36

Hello, I am looking for reported pIC50 with Phospho-Rb (Ser807/811) for COc1cc(Oc2ccc(F)cc2F)ccc1NC(=O)OCc1ccc2c(c1OC)C(=O)N(C1CCC(=O)NC1=O)C2 (centres unmarked) . Could you help?
6.77

Requested read-out pIC50, target or system Phospho-Rb (Ser807/811), entry COc1cc(Oc2ccccc2)ccc1NC(=O)OCc1ccc2c(c1OC)C(=O)N(C1CCC(=O)NC1=O)C2 (centres unmarked)
6.80

Give pIC50 (Phospho-Rb (Ser807/811)) of the following compound: CCOc1c(COC(=O)Nc2ccc(Oc3ccc(F)c(F)c3)cc2)ccc2c1C(=O)N(C1CCC(=O)NC1=O)C2 (centres unmarked)
7.07

Param readout = pIC50; param system = Phospho-Rb (Ser807/811); param query = O=C1CCC(N2Cc3ccc(COC(=O)Nc4ccc(Oc5ccc(F)cc5F)cc4F)c(O[C@@H]4CCCOC4)c3C2=O)C(=O)N1 (some centres unmarked) ; response: value
7.12

# query: pIC50 | item COc1c(COC(=O)Nc2ccc(Oc3cccc(C)c3)cc2)ccc2c1C(=O)N(C1CCC(=O)NC1=O)C2 (centres unmarked) | system: Phospho-Rb (Ser807/811)
6.45

What pIC50 appears in the records for this compound with Phospho-Rb (Ser807/811)? COc1c(COC(=O)Nc2ccc(Oc3cc(F)c(F)c(F)c3)cc2C)ccc2c1C(=O)N(C1CCC(=O)NC1=O)C2 (centres unmarked)
6.89

Record lookup: for Phospho-Rb (Ser807/811), what pIC50 belongs to CC(C)(O)COc1c(COC(=O)Nc2ccc(Oc3cc(F)cc(F)c3)cc2F)ccc2c1C(=O)N(C1CCC(=O)NC1=O)C2 (centres unmarked) ?
7.60

Form: Entry = COc1c(COC(=O)Nc2ccc(Oc3ccc(F)c(Cl)c3)cc2F)ccc2c1C(=O)N(C1CCC(=O)NC1=O)C2 (centres unmarked) | System = Phospho-Rb (Ser807/811) | pIC50 = ____
7.04

For Phospho-Rb (Ser807/811), provide pIC50 of CC(C)Oc1c(COC(=O)Nc2ccc(Oc3cccc(F)c3)cc2)ccc2c1C(=O)N(C1CCC(=O)NC1=O)C2 (centres unmarked) please.
6.96

pIC50 of CC(C)(O)COc1c(COC(=O)Nc2ccc(Oc3ccc(F)cc3F)cc2F)ccc2c1C(=O)N(C1CCC(=O)NC1=O)C2 (centres unmarked) on Phospho-Rb (Ser807/811)?
6.95

Entry COc1cc(Oc2ccc(F)c(C)c2)ccc1NC(=O)OCc1ccc2c(c1OC)C(=O)N(C1CCC(=O)NC1=O)C2 (centres unmarked) , system Phospho-Rb (Ser807/811): what pIC50 was measured?
6.49
